- Protocol: Metabolic stability of the compound in mouse liver microsomes assessed as parent compound remaining measured after 30 mins
- Type: ADME, Microsome
- Measurement Conditions: read-out: Stability
Readout Type: remaining at 0.5 h

[
  {
    "Compound": "COc1ccc(S(=O)(=O)/C=C/c2ccccc2C(F)(F)F)nc1",
    "Readout Type": "remaining at 0.5 h",
    "Result": "2.7%"
  },
  {
    "Compound": "COc1ccnc(S(=O)(=O)/C=C/c2ccc(Cl)cn2)c1",
    "Readout Type": "remaining at 0.5 h",
    "Result": "67.6%"
  },
  {
    "Compound": "COc1cccnc1[S+]([O-])/C=C/c1ccccc1C(F)(F)F (stereo unspecified)",
    "Readout Type": "remaining at 0.5 h",
    "Result": "5%"
  },
  {
    "Compound": "COc1ncccc1S(=O)(=O)/C=C/c1ccccc1C(F)(F)F",
    "Readout Type": "remaining at 0.5 h",
    "Result": "48.1%"
  },
  {
    "Compound": "COc1cccc([S+]([O-])/C=C/c2ccccc2C(F)(F)F)n1 (stereo unspecified)",
    "Readout Type": "remaining at 0.5 h",
    "Result": "1.1%"
  },
  {
    "Compound": "COc1cccnc1S(=O)(=O)/C=C/c1ncccc1C(F)(F)F",
    "Readout Type": "remaining at 0.5 h",
    "Result": "64.7%"
  },
  {
    "Compound": "COc1cccc(S(=O)(=O)/C=C/c2ccccc2C(F)(F)F)n1",
    "Readout Type": "remaining at 0.5 h",
    "Result": "6%"
  },
  {
    "Compound": "COc1cccc(S(=O)(=O)/C=C/c2ncccc2Cl)n1",
    "Readout Type": "remaining at 0.5 h",
    "Result": "9.6%"
  },
  {
    "Compound": "COc1ccnc(S(=O)(=O)/C=C/c2ccc(Cl)cc2)c1",
    "Readout Type": "remaining at 0.5 h",
    "Result": "18.8%"
  },
  {
    "Compound": "COc1cccc(S(=O)(=O)/C=C/c2ccccc2Cl)n1",
    "Readout Type": "remaining at 0.5 h",
    "Result": "4.4%"
  },
  {
    "Compound": "COc1ccnc([S+]([O-])/C=C/c2ccccc2C(F)(F)F)c1 (stereo unspecified)",
    "Readout Type": "remaining at 0.5 h",
    "Result": "1.4%"
  },
  {
    "Compound": "COc1ccnc(S(=O)(=O)/C=C/c2ncccc2C(F)(F)F)c1",
    "Readout Type": "remaining at 0.5 h",
    "Result": "19%"
  },
  {
    "Compound": "COc1ncccc1S(=O)(=O)/C=C/c1ncccc1C(F)(F)F",
    "Readout Type": "remaining at 0.5 h",
    "Result": "29.9%"
  },
  {
    "Compound": "COc1ccnc(S(=O)(=O)/C=C/c2ncccc2Cl)c1",
    "Readout Type": "remaining at 0.5 h",
    "Result": "36.8%"
  },
  {
    "Compound": "COc1ccnc(S(=O)(=O)/C=C/c2cccc(Cl)c2)c1",
    "Readout Type": "remaining at 0.5 h",
    "Result": "8.7%"
  },
  {
    "Compound": "COc1ccnc(S(=O)(=O)/C=C/c2ccc(Cl)nc2)c1",
    "Readout Type": "remaining at 0.5 h",
    "Result": "82.1%"
  },
  {
    "Compound": "COc1cccnc1/C=C/S(=O)(=O)c1ncccc1OC",
    "Readout Type": "remaining at 0.5 h",
    "Result": "> 99%"
  },
  {
    "Compound": "COc1ccc(S(=O)(=O)/C=C/c2ccccc2Cl)nc1",
    "Readout Type": "remaining at 0.5 h",
    "Result": "5.6%"
  },
  {
    "Compound": "COc1cccnc1S(=O)(=O)/C=C/c1ccccc1C(F)(F)F",
    "Readout Type": "remaining at 0.5 h",
    "Result": "17.8%"
  },
  {
    "Compound": "COc1ncccc1S(=O)(=O)/C=C/c1ncccc1Cl",
    "Readout Type": "remaining at 0.5 h",
    "Result": "59.2%"
  },
  {
    "Compound": "COc1cccnc1S(=O)(=O)/C=C/c1ccccc1Cl",
    "Readout Type": "remaining at 0.5 h",
    "Result": "34.4%"
  },
  {
    "Compound": "COc1cccnc1C(=O)/C=C/c1ccccc1C(F)(F)F",
    "Readout Type": "remaining at 0.5 h",
    "Result": "1.4%"
  },
  {
    "Compound": "COc1ccnc(S(=O)(=O)/C=C/c2ccnc(Cl)c2)c1",
    "Readout Type": "remaining at 0.5 h",
    "Result": "64.5%"
  },
  {
    "Compound": "COc1ccnc(S(=O)(=O)/C=C/c2ccncc2Cl)c1",
    "Readout Type": "remaining at 0.5 h",
    "Result": "50.4%"
  },
  {
    "Compound": "COc1ccnc(S(=O)(=O)/C=C/c2ccccc2C(F)(F)F)c1",
    "Readout Type": "remaining at 0.5 h",
    "Result": "1.6%"
  },
  {
    "Compound": "COc1cccnc1S(=O)(=O)/C=C/c1ccccc1F",
    "Readout Type": "remaining at 0.5 h",
    "Result": "63.6%"
  },
  {
    "Compound": "COc1cccc(S(=O)(=O)/C=C/c2ncccc2C(F)(F)F)n1",
    "Readout Type": "remaining at 0.5 h",
    "Result": "4%"
  },
  {
    "Compound": "COc1ccc(S(=O)(=O)/C=C/c2ncccc2C(F)(F)F)nc1",
    "Readout Type": "remaining at 0.5 h",
    "Result": "60.1%"
  },
  {
    "Compound": "COc1ccncc1S(=O)(=O)/C=C/c1ncccc1Cl",
    "Readout Type": "remaining at 0.5 h",
    "Result": "77.1%"
  },
  {
    "Compound": "COc1ccc([S+]([O-])/C=C/c2ccccc2C(F)(F)F)nc1 (stereo unspecified)",
    "Readout Type": "remaining at 0.5 h",
    "Result": "1%"
  },
  {
    "Compound": "COc1ccnc(S(=O)(=O)/C=C/c2cccnc2Cl)c1",
    "Readout Type": "remaining at 0.5 h",
    "Result": "61.4%"
  },
  {
    "Compound": "COc1ccnc(S(=O)(=O)/C=C/c2ccccc2Cl)c1",
    "Readout Type": "remaining at 0.5 h",
    "Result": "2.2%"
  },
  {
    "Compound": "COc1ccc(S(=O)(=O)/C=C/c2ncccc2Cl)nc1",
    "Readout Type": "remaining at 0.5 h",
    "Result": "44%"
  },
  {
    "Compound": "COc1ccncc1S(=O)(=O)/C=C/c1ccccc1C(F)(F)F",
    "Readout Type": "remaining at 0.5 h",
    "Result": "71.9%"
  },
  {
    "Compound": "COc1cccnc1S(=O)(=O)/C=C/c1ncccc1Cl",
    "Readout Type": "remaining at 0.5 h",
    "Result": "61%"
  },
  {
    "Compound": "COc1ncccc1S(=O)(=O)/C=C/c1ccccc1Cl",
    "Readout Type": "remaining at 0.5 h",
    "Result": "48.1%"
  }
]
